FYI, the data here is from patent US11492338B2.

# PROTOCOL TEXT: Solubility in deionized water at 20° C.
# Type: physicochemical
# CONDITION INFO: Table 2, read-out: Solubility
MEASUREMENT KIND: Solubility (mg/mL)

CCCCCCCCCCCC(=O)c1cc(S(=O)(=O)O)c(C)o1: 350

###

# PROTOCOL TEXT: Solubility in deionized water at 20° C.
# Type: physicochemical
# CONDITION INFO: Table 2
Reported Solubility values for the following compounds.
MEASUREMENT KIND: Solubility (mg/mL)

CCCCCCCCCCCC(=O)c1cc(S(=O)(=O)O)c(C)o1.N: 1000
CCCCCCCCCCCC(=O)c1cc(S(=O)(=O)[O-])c(C)o1.[Li+]: 300
CCCCCCCCCCCC(=O)c1cc(S(=O)(=O)[O-])c(C)o1.CCCCCCCCCCCC(=O)c1cc(S(=O)(=O)[O-])c(C)o1.[Mg+2]: 10

###

# PROTOCOL TEXT: Critical micelle concentration (CMC)
# Type: physicochemical
# CONDITION INFO: Table 2
MEASUREMENT KIND: CMC (critical micelle concentration) (ppm)

CCCCCCCCCCCCOCCOCCOCCOS(=O)(=O)[O-].[Na+] [SLES, sodium lauryl ether sulfate, reference compound]: 449
CCCCCCCCCCCC(=O)c1cc(S(=O)(=O)O)c(C)o1: 300
CCCCCCCCCCCC(=O)c1cc(S(=O)(=O)O)c(C)o1.N: 3309
CCCCCCCCCCCC(=O)c1cc(S(=O)(=O)[O-])c(C)o1.[Na+]: 1480
CCCCCCCCCCCC(=O)c1cc(S(=O)(=O)[O-])c(C)o1.[Li+]: 1347

###

# PROTOCOL TEXT: Krafft point
# Format: physicochemical
# CONDITION INFO: Table 2
MEASUREMENT KIND: Krafft Point

CCCCCCCCCCCCOCCOCCOCCOS(=O)(=O)[O-].[Na+] [SLES, sodium lauryl ether sulfate, reference compound]: <0 °C
CCCCCCCCCCCC(=O)c1cc(S(=O)(=O)[O-])c(C)o1.CCCCCCCCCCCC(=O)c1cc(S(=O)(=O)[O-])c(C)o1.[Mg+2] [Mg^2+]: 20 °C
CCCCCCCCCCCC(=O)c1cc(S(=O)(=O)O)c(C)o1.N [NH4^+]: <0 °C
CCCCCCCCCCCC(=O)c1cc(S(=O)(=O)O)c(C)o1 [Ca^2+]: <0 °C
CCCCCCCCCCCC(=O)c1cc(S(=O)(=O)[O-])c(C)o1.[Li+] [Li^+]: <0 °C
CCCCCCCCCCCC(=O)c1cc(S(=O)(=O)[O-])c(C)o1.[Na+] [Na^+]: <0 °C

###

Reported Surface Tension at critical micelle concentration values for the following compounds.
# PROTOCOL TEXT: Surface tension at critical micelle concentration
# Type: physicochemical
# CONDITION INFO: Table 2
MEASUREMENT KIND: Surface Tension at critical micelle concentration (mN/m)

CCCCCCCCCCCC(=O)c1cc(S(=O)(=O)O)c(C)o1 [Ca^2+]: 33
CCCCCCCCCCCC(=O)c1cc(S(=O)(=O)O)c(C)o1.N [NH4^+]: 39
CCCCCCCCCCCC(=O)c1cc(S(=O)(=O)[O-])c(C)o1.[Na+] [Na^+]: 42
CCCCCCCCCCCCOCCOCCOCCOS(=O)(=O)[O-].[Na+] [SLES, sodium lauryl ether sulfate, reference compound]: 32
CCCCCCCCCCCC(=O)c1cc(S(=O)(=O)[O-])c(C)o1.[Li+] [Li^+]: 45
